DC50 values for the molecules below.
tgt: KRAS G12V (Homo sapiens, UniProt P01116, G12V)
Construct: SW620-KRAS (G12V)-HiBit-KI cell (Pharmaron); host or cells: SW620-KRAS (G12V)-HiBit-KI cells (HiBiT knock-in at the endogenous KRAS locus)
Sequence (P01116 1-188 isoform P01116-2 G12V): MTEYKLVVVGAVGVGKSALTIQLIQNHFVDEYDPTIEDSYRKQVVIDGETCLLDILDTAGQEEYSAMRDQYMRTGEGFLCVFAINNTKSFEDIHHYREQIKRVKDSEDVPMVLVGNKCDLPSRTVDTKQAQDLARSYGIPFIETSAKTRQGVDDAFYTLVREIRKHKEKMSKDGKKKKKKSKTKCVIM
assay.notes: KRAS G12V HiBit assay
Format: cell-based
condition.description: SW620-KRAS (G12V)-HiBit-KI cells, compound treatment for 24 hours, class symbols

Here's what some known entries look like.
{"molecule": "C#Cc1c(F)ccc2cc(O)cc(-c3ncc4c(N5CCC[C@@](C)(O)C5)nc(OC[C@@]56CCCN5[C@H](COC(=O)N5CCC7(CCC(CN8CCC(c9ccc%10c(c9)n(C)c(=O)n%10C9CCC(=O)NC9=O)CC8)CC7)CC5)CC6)nc4c3F)c12 (stereo partly shown)", "DC50": "< 10 nM"}
{"molecule": "C#Cc1c(F)ccc2cc(O)cc(-c3ncc4c(N5CCC[C@@](C)(O)C5)nc(OCC5(CN6CCC7(CC6)CC(N6CCC(c8cccc9c8n(C)c(=O)n9C8CCC(=O)NC8=O)CC6)C7)CC5)nc4c3F)c12 (stereo partly shown)", "DC50": "< 10 nM"}

Inquiry: Item under review: CCc1c(F)ccc2cccc(-c3ncc4c(N5CCC[C@@](C)(O)C5)nc(OC[C@@]56CCCN5[C@H](COC(=O)NCCOCCOCCOc5ccc7c(c5)n(C)c(=O)n7C5CCC(=O)NC5=O)CC6)nc4c3F)c12 (stereo partly shown) . Reported DC50?
Reply text: > 100 nM

Inquiry: Note, next up: C#Cc1c(F)ccc2cc(O)cc(-c3ncc4c(N5CCC[C@@](C)(O)C5)nc(OC[C@@]56CCCN5[C@H](COC(=O)N5CC(N7CCC(N8CCC(c9ccc%10c(c9)n(C)c(=O)n%10C9CCC(=O)NC9=O)CC8)CC7)C5)CC6)nc4c3F)c12 (stereo partly shown)
Reply text: > 100 nM

---

tgt: KRAS (Homo sapiens, UniProt P01116)
Construct: endogenous in cells; host or cells: KE39 (KRAS amplified) cells
Sequence (P01116 1-188 isoform P01116-2): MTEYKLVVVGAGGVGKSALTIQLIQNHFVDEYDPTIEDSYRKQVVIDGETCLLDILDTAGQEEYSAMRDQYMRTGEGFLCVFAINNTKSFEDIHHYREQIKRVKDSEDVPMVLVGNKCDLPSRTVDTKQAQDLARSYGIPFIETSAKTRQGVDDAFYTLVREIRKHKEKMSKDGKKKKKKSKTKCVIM
assay.notes: KRASamp MSD assay
Type: cell-based
condition.description: KE39 (KRAS amplified) cells, treated with test compounds for 24 hr, MSD readout of KRAS degradation
readout.label: DC50

Worked examples follow.
{"molecule": "CCc1c(F)ccc2cc(O)cc(-c3ncc4c(N5CCC[C@@](C)(O)C5)nc(OC[C@@]56CCCN5[C@H](COC(=O)N5CCC(CN7CCC(c8ccc9c(c8F)n(C)c(=O)n9C8CCC(=O)NC8=O)CC7)CC5)CC6)nc4c3F)c12 (stereo partly shown) [Compound 96]", "data.value": "< 1 nM"}
{"molecule": "CCc1c(F)ccc2cc(O)cc(-c3ncc4c(N5CCC[C@@](C)(O)C5)nc(OC[C@]56CCCN5[C@H](CN5CCC(OCCCc7ccc8c(c7)n(C)c(=O)n8C7CCC(=O)NC7=O)CC5)CC6)nc4c3F)c12 (stereo partly shown) [Compound 444]", "data.value": "1 to 10 nM"}
{"molecule": "CCc1c(F)ccc2cc(O)cc(-c3ncc4c(N5CCCC5)nc(OC[C@@]56CCCN5[C@H](COC(=O)N5CCC7(CC5)CC(N5CCC(c8ccc9c(c8)n(C)c(=O)n9C8CCC(=O)NC8=O)CC5)C7)CC6)nc4c3F)c12 (stereo partly shown) [Compound 348]", "data.value": "≥ 10 nM"}

Now for another entry.
Inquiry: Request: DC50, test system KRAS (Homo sapiens, UniProt P01116), entry CCc1c(F)ccc2cc(O)cc(-c3ncc4c(N5CCCCC5)nc(OC[C@@]56CCCN5[C@H](CN5CCC(CN7CCC(c8ccc9c(c8)n(C)c(=O)n9C8CCC(=O)NC8=O)CC7)CC5)CC6)nc4c3F)c12 (stereo partly shown) [Compound 379]
Reply text: < 1 nM
